Cited source for all entries: PubChem BioAssay (NCI)

# assay.info: NCI Yeast Anticancer Drug Screen. Data for the mec2-1 strain (AID 157)
# applied.conditions: S. cerevisiae mec2-1 strain, at 100.0 µM
# Method: Growth inhibition of yeast strains with defined genetic alterations is measured as a screen for potential anti-cancer activity. Selected strains with alterations in DNA damage repair or cell cycle control were exposed to compounds and growth inhibition was measured relative to vehicle treated controls. The strain used in this assay is mec2-1
The panel holds about 79,000 compounds, 15% with a hit somewhere; the sample as a whole holds those more often. Active and inactive are the calls of the source. Cut-off read from the data, not from the text of the source: active = growth inhibition above about 70%; inactive = the rest.
Pick from active, inactive when you respond.

- compound: "O=C1CSC(/C=C/c2ccccc2)N1c1ccc(-c2ccc(-n3c(-c4ccccc4)nc4ccccc4c3=O)cc2)cc1 (stereo unspecified)"
  assigned.label: "inactive"
- compound: "CC(C)OC(=O)Oc1ccccc1OC(=O)OC(C)C"
  assigned.label: "inactive"
- compound: "CCCN(CCC)CC(O)c1cc(-c2ccc(Cl)cc2)nc2c(C)c(Cl)ccc12 (stereo unspecified)"
  assigned.label: "active"
- compound: "CC(=O)N/N=C/C(C)(C)C(C)(C)/C=N/NC(C)=O"
  assigned.label: "inactive"
- compound: "O=C1c2ccccc2-c2nc3ccccc3nc21"
  assigned.label: "inactive"
- compound: "S=C(N/N=C/c1ccccn1)Nc1ccc(Cl)cc1"
  assigned.label: "inactive"
- compound: "CC(=O)Oc1ccc2c(c1)Cc1cc(N=C3C=CC(=O)O3)ccc1-2"
  assigned.label: "active"
- compound: "CNC1C(OC2C(OC3C(O)C(O)C(N=C(N)N)C(O)C3N=C(N)N)OC(C)C2(O)CO)OC(CO)C(O)C1O (stereo unspecified)"
  assigned.label: "inactive"

Input: Per the assay record, what outcome was assigned to CC1CCN(CCC(=O)c2ccc(Cl)cc2)CC1 ?
Output: inactive

Input: Lab log entry: CCCCCCCCCCCCCCC(C(=O)[O-])[n+]1ccccc1 (stereo unspecified) — outcome as called in the assay?
Output: active

Input: Tell me the recorded outcome of this test for Cc1ccc(S(=O)(=O)NCCSS(=O)(=O)c2ccc(C)cc2)cc1 .
Output: active

* * *

# assay.info: NCI Yeast Anticancer Drug Screen. Data for the mec2-1 strain (AID 157)
# applied.conditions: S. cerevisiae mec2-1 strain, at 5.0 µM (retest, dose inferred, filed as 0.5)
The panel holds about 79,000 compounds, 15% with a hit somewhere; the sample as a whole holds those more often. Active and inactive are the calls of the source. Rule as the data show it: active = growth inhibition above about 70%; inactive = the rest.
Outcome field: choose from yes (1) = active, no (0) = inactive

Completed entries (count: 5):
- compound: "CCC#CCCCOC(=O)c1cc([N+](=O)[O-])cc([N+](=O)[O-])c1"
  assigned.label: "no (0)"
- compound: "CN(N=O)N1C(=O)SCC(c2ccccc2)(c2ccccc2)C1=O"
  assigned.label: "no (0)"
- compound: "CCOc1ccc2c(c1)c(CC(=O)O)cn2C"
  assigned.label: "no (0)"
- compound: "CCC(C(=O)O)C1=C(c2ccccc2)CCc2ccccc21 (stereo unspecified)"
  assigned.label: "no (0)"
- compound: "CC(=O)Oc1ccc2c(c1)Cc1cc(N=C3C=CC(=O)O3)ccc1-2"
  assigned.label: "yes (1)"

Input: What did the test return for Cc1cc(CO)c(O)c(CNCc2cc(C)cc(CO)c2O)c1 ?
Output: no (0)

Input: Please let me know the test result on file for c1ccc2c(c1)c1ncccc1c1nccnc21 .
Output: no (0)

Input: // outcome(item) with item = CC(=O)Cc1ccc[cH-]1.[Fe+2].c1cc[cH-]c1
Output: no (0)

Input: # lookup: test call for Oc1cccc2c(Cl)ccnc12
Output: yes (1)

Input: So what was the verdict on CC(C)c1cc(C(C)C)c(O)c(C([O-])[O-])c1.CC(C)c1cc(C(C)C)c(O)c(C([O-])[O-])c1.CC(C)c1cc(C(C)C)c(O)c(C([OH2+])[OH2+])c1.CC(C)c1cc(C(C)C)c(O)c(C([OH2+])[OH2+])c1.[Cu+2].[Cu+2].[OH3+].[OH3+] in this test?
Output: no (0)

Input: Recorded test outcome, item c1ccc2c(c1)NC(NC1Nc3ccccc3N1)N2
Output: no (0)

Input: Kindly provide the recorded test outcome for the following compound: O=C(NNc1ccnc2cc(Cl)ccc12)/C(=C\c1ccccc1Cl)NC(=O)c1ccccc1
Output: no (0)

Input: Recorded test call requested for COc1ccccc1C(=O)OCC1CCCN2CCCCC12 (stereo unspecified)
Output: no (0)

Input: Please indicate how the test categorized BrCc1cccc2ccc3cccc(CBr)c3c12 .
Output: no (0)

Input: Any idea what this test logged for CC(=O)Nc1ccc(/C=C(\C#N)c2ccc(C)cc2)cc1 ?
Output: no (0)

Input: Hi team, can someone confirm the assay call for Cc1ccc(S(=O)(=O)NC(=O)NC2=NC(C)(C)N(c3ccc(Cl)c(Cl)c3)C(N)=N2)cc1 ?
Output: no (0)

Input: What classification did COC1C=COC2(C)Oc3c(C)c(O)c4c(c3C2=O)/C(=N/C2CCC(O)OC2C)C=C(NC(=O)/C(C)=C\C(=O)C2CC2C(O)C(C)C(O)C(C)C(OC(C)=O)C1C)C4=O (stereo unspecified) end up with in this test?
Output: no (0)

Input: Could you kindly confirm the outcome this assay logged for CN(C)c1ccc(Sc2ccc3nc(N)nc(N)c3c2)cc1 ?
Output: no (0)

Input: Per the records of this test, what outcome belongs to Cc1nc(-[n+]2nc(-c3ccncc3)nn2-c2ccccc2)sc1C ?
Output: no (0)

Input: Status in this test for CC1CCN(CCC(=O)c2ccc(Cl)cc2)CC1 ?
Output: no (0)

Input: Per the records of this test, what outcome belongs to OC1(c2ccccc2)CSC2=Nc3ccccc3C3CCN1N23 (stereo unspecified) ?
Output: no (0)

* * *

# assay.info: NCI Yeast Anticancer Drug Screen. Data for the rad50 strain (AID 155);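 note: 0% = growth of vehicle-only cultures of the same strain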
# applied.conditions: S. cerevisiae rad50 strain growth inhibition; at 50.0 µM; stronger effect = higher value
The panel holds about 79,000 compounds, 15% with a hit somewhere; the sample as a whole holds those more often.
Decide using growth inhibition: a value greater than or equal to 60% is satisfied, a smaller one is not satisfied.

Please review the entries below; each comes with its answer.
- molecule: "CNC1C(OC2C(OC3C(O)C(O)C(N=C(N)N)C(O)C3N=C(N)N)OC(C)C2(O)CO)OC(CO)C(O)C1O (stereo unspecified)"
  assigned.label: "satisfied"
- molecule: "Clc1cccc(C(Nc2nncs2)Nc2nncs2)c1Cl"
  assigned.label: "not satisfied"
- molecule: "O=Nc1c(NO)ccc2nn(-c3ccccc3)nc12"
  assigned.label: "not satisfied"
- molecule: "Cc1ccc(C2C(Cl)C(=O)N2n2cnc3ccccc3c2=O)cc1 (stereo unspecified)"
  assigned.label: "not satisfied"

Now consider a different molecule.
Input: API: above_or_equal(metric=growth inhibition, cutoff=60%) for item OC(c1ccc(F)cc1)(c1ccc(F)cc1)C1CC1
Output: satisfied

* * *

Task for the reader: assign each of the following molecules its reported growth inhibition.
# assay.info: NCI Yeast Anticancer Drug Screen. Data for the mec2-1 strain (AID 157)
# applied.conditions: S. cerevisiae mec2-1 strain, at 5.0 µM (retest, dose inferred, filed as 0.5), stronger effect = higher value
# Description: Growth inhibition of yeast strains with defined genetic alterations is measured as a screen for potential anti-cancer activity. Selected strains with alterations in DNA damage repair or cell cycle control were exposed to compounds and growth inhibition was measured relative to vehicle treated controls. The strain used in this assay is mec2-1
Compounds without any hit were thinned out: in the full panel of roughly 79,000, 15% have a hit.
Answers are plain numbers, in %.

- molecule: "C/C(=N/NC(=S)N1CCCCCC1)c1cccc(/C(C)=N\\NC(=S)N2CCCCCC2)n1"
  observed.result: 31
- molecule: "COc1ccc2ccc3ccccc3c2c1C=O"
  observed.result: 9

Respectfully, I request growth inhibition for each entry included below.
1. CCCCN1C(=O)N(c2ccc(OCC)cc2)C2N(CCCC)C1C(C)(C)C2(C)C (stereo unspecified)
2. COc1cc2ccc(/C=C\[N+](=O)[O-])cc2cc1OC

Output:
4
29

Give me growth inhibition for each of these molecules, listed below.
1. CC(=O)OCCOCNC(=S)N/N=C(\C)c1cnccn1
2. COC(=O)c1ccc(NCC2=CC(=O)C=CC2=O)cc1O

Output:
-59
13

* * *

# assay.info: NCI Yeast Anticancer Drug Screen. Data for the rad14 strain (AID 159);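 note: 0% = growth of vehicle-treated control cultures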
# applied.conditions: S. cerevisiae rad14 strain growth inhibition; at 33.0 µM; stronger effect = higher value
Compounds without any hit were thinned out: in the full panel of roughly 79,000, 15% have a hit.
Where growth inhibition equals or exceeds 40%, the correct label is Criterion met; where it does not, the label is Criterion not met.

A selection of reference data follows.
- compound: "O=[N+]([O-])c1cccc2nccc(NCCCO)c12"
  assigned.label: "Criterion met"
- compound: "CC(=O)Oc1cc(-c2cc(OC(C)=O)c(OC(C)=O)c3ccccc23)c2ccccc2c1OC(C)=O"
  assigned.label: "Criterion met"
- compound: "O=C(O)c1ccccc1NC(=S)c1ccccc1"
  assigned.label: "Criterion not met"
- compound: "FC(F)(F)c1cc(NC(=S)N2c3ccccc3-n3cccc3C2c2cccnc2)cc(C(F)(F)F)c1 (stereo not given)"
  assigned.label: "Criterion not met"

Input: Could you tell me if the measured growth inhibition of Cc1ccc(S(=O)(=O)Oc2cc(Cl)c(Cl)cc2Cl)cc1 reaches 40% or more?
Output: Criterion not met

Input: hey, is growth inhibition for this one >= 40%? Clc1ccc(SC(/C=C/NNC2=NC(c3ccccc3)C(c3ccccc3)=NN2)c2ccccc2)cc1 (stereo not given)
Output: Criterion met

Input: Determine whether this compound has growth inhibition no lower than 40%: CN1c2ccc(Cl)cc2C(=O)NC1c1ccc([N+](=O)[O-])s1 (stereo not given)
Output: Criterion met
